assay: Protein binding in mouse plasma; type: ADME, cell-free; conditions: read-out: PPB (converted)
measurement.kind: fraction unbound

{"input.smiles": "CC(=O)N1CC2(CC(Nc3cc4c(cn3)C3(CC3)CN(C[C@H](O)CN3CCc5ccccc5C3)C4=O)C2)C1", "numeric.value": 0.0701}

###

test system: Z-138; test: Antiproliferative activity against human Z138 cells measured after 7 days by CellTiter-Glo luminescence cell viability assay; format: functional, cell-based; conditions: Z-138, 168 h
pIC50: −log10 of the molar value.

{"compound": "CC(=O)N1CCC(Nc2cc3c(cn2)C2(CC2)CN(C[C@H](O)CN2CCc4ccccc4C2)C3=O)CC1", "pIC50": 8.51}
{"compound": "CC(=O)N1CCC(Nc2ccc3c(c2)C(=O)N(C[C@H](O)CN2CCc4ccccc4C2)CC3)CC1", "pIC50": 7.85}
{"compound": "O=C1c2cc(NC3CCNCC3)ccc2C2(CC2)CN1C[C@H](O)CN1CCc2ccccc2C1", "pIC50": 6.23}
{"compound": "O=C1c2cc(NC3CCN(C(=O)C4CC4)CC3)ccc2C2(CCCC2)CN1C[C@H](O)CN1CCc2ccccc2C1", "pIC50": 7.69}
{"compound": "Cn1cc(C(=O)Nc2ccc3c(c2)C(=O)N(C[C@H](O)CN2CCc4ccccc4C2)CC32CCC2)cn1", "pIC50": 6.50}
{"compound": "CC(=O)N1CCC(Nc2cc(C(=O)NC[C@H](O)CN3CCc4ccccc4C3)ncn2)CC1 [PEMRAMETOSTAT]", "pIC50": 7.59}
{"compound": "CC(=O)N1CCC(C(=O)Nc2ccc3c(c2)C(=O)N(C[C@H](O)CN2CCc4ccccc4C2)CC32CC2)CC1", "pIC50": 6.99}
{"compound": "CC(=O)N1CCC(Nc2ccc3c(n2)C(=O)N(C[C@H](O)CN2CCc4ccccc4C2)CC32CC2)CC1", "pIC50": 6.55}
{"compound": "CC(=O)N1CCC(C(=O)Nc2ccc3c(c2)C(=O)N(C[C@H](O)CN2CCc4ccccc4C2)CC32CCC2)CC1", "pIC50": 7.04}
{"compound": "CC(=O)N1CCC(Nc2ccc3c(c2)C(=O)N(C[C@H](O)CN2CCc4ccccc4C2)CC32CCCC2)CC1", "pIC50": 7.99}
{"compound": "O=C(Nc1ccc2c(c1)C(=O)N(C[C@H](O)CN1CCc3ccccc3C1)CC21CC1)c1ccccc1", "pIC50": 6.40}

###

Reported pIC50 values for the following compounds.
molecular target: PRMT5/MEP50 complex (Homo sapiens); test: Inhibition of recombinant N-terminal FLAG-tagged human full-length PRMT5/full length human MEP50 extracted from baculovirus expression system using [3H]-SAM as substrate preincubated for 15 mins followed by substrate addition and measured after 60 mins by multimode plate reader analysis
Sequence (O14744 whole entry): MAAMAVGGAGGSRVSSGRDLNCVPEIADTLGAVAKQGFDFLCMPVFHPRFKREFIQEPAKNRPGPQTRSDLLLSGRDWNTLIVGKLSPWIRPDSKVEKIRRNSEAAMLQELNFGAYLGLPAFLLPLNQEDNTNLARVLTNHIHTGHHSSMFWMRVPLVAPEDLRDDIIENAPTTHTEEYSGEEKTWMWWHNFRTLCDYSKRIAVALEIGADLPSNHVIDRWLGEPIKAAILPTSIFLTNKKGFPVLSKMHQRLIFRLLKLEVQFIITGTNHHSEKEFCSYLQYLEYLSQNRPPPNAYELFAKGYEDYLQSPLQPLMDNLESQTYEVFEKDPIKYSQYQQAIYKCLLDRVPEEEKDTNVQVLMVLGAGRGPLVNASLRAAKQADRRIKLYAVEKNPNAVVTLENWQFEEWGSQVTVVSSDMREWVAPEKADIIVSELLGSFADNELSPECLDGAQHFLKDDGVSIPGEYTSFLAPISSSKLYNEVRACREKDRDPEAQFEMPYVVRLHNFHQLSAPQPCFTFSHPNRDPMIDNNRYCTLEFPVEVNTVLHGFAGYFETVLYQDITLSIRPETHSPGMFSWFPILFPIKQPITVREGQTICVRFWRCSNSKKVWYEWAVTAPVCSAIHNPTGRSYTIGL
Sequence (Q9BQA1 whole entry, further chain): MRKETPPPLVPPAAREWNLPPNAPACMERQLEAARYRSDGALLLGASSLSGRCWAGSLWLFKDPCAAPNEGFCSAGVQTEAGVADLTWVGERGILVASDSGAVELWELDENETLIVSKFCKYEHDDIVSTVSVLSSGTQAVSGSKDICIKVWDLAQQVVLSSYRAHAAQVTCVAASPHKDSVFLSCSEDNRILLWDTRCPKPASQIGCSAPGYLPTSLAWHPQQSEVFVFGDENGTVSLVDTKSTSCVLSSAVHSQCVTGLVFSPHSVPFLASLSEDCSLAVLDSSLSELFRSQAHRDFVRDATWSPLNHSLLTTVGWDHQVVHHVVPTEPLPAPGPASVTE
pIC50: −log10 of the molar value.
measurement.kind: pIC50

{"compound": "CC(=O)N1CCC(Nc2ccc3c(c2)C(=O)N(C[C@H](O)CN2CCc4ccccc4C2)CC32CC2)CC1", "measurement.kind": "pIC50", "censoring.qualifier": "=", "numeric.value": 7.74}
{"compound": "O=C(Nc1ccc2c(c1)C(=O)N(C[C@H](O)CN1CCc3ccccc3C1)CC21CC1)C1CCOCC1", "measurement.kind": "pIC50", "censoring.qualifier": "=", "numeric.value": 7.78}
{"compound": "O=C(Nc1ccc2c(c1)C(=O)N(C[C@H](O)CN1CCc3ccccc3C1)CC21CC1)c1ccccc1", "measurement.kind": "pIC50", "censoring.qualifier": "=", "numeric.value": 7.97}
{"compound": "CC(=O)N1CC2(CC(Nc3cc4c(cn3)C3(CC3)CN(C[C@H](O)CN3CCc5ccccc5C3)C4=O)C2)C1", "measurement.kind": "pIC50", "censoring.qualifier": "=", "numeric.value": 7.68}
{"compound": "CC(=O)N1CCC(Nc2ccc3c(c2)N(C[C@H](O)CN2CCc4ccccc4C2)C(=O)C3)CC1", "measurement.kind": "pIC50", "censoring.qualifier": "<", "numeric.value": 5.00}
{"compound": "C[S+](CC[C@H](N)C(=O)[O-])C[C@H]1O[C@@H](n2cnc3c(N)ncnc32)[C@H](O)[C@@H]1O (stereo partly specified) [ADEMETIONINE]", "measurement.kind": "pIC50", "censoring.qualifier": "=", "numeric.value": 6.10}

Data credit: ChEMBL document CHEMBL6087464
